I'd be grateful if you could share measured Activity for these entries.
System: Bel-7402
experimental-protocol: Antiproliferative activity against human Bel7402 cells at 10 umole
Type: functional
Record the value in %, omitting the unit from your answer.

What value of measured Activity is listed for `CCOC(=O)/C=C/[C@H](Cc1ccccc1)NC(=O)[C@H](CO)NC(=O)[C@H](Cc1ccccc1)NC(=O)OC(C)(C)C` ?
-8.04

# Activity lookup, item `CCOC(=O)/C=C/[C@H](C[C@@H]1CCNC1=O)NC(=O)[C@H](CC(C)C)NC(=O)[C@H](CO)NC(=O)[C@@H](NC(=O)OC(C)(C)C)C(C)C`
-3.55

Which Activity is reported for this molecule? `CCOC(=O)/C=C/[C@H](C[C@@H]1CCNC1=O)NC(=O)[C@H](Cc1ccccc1)NC(=O)[C@H](CC(C)C)NC(=O)OC(C)(C)C`
-1.63

What value of measured Activity is listed for `CCOC(=O)/C=C/[C@H](Cc1ccccc1)NC(=O)[C@@H](NC(=O)[C@@H](NC(=O)OC(C)(C)C)[C@@H](C)CC)[C@@H](C)O` ?
-1.79

What value of measured Activity is listed for `CCOC(=O)/C=C/[C@H](Cc1ccccc1)NC(=O)[C@H](CC(C)C)NC(=O)[C@H](CC(C)C)NC(=O)OC(C)(C)C` ?
-12.87

For the molecule shown here, `CCOC(=O)/C=C/[C@H](Cc1ccc(O)cc1)NC(=O)[C@H](Cc1ccccc1)NC(=O)[C@H](CC(C)C)NC(=O)OC(C)(C)C` , give the reported Activity.
-4.24

Give its Activity value. Item: `CCOC(=O)/C=C/[C@H](C[C@@H]1CCNC1=O)NC(=O)[C@H](Cc1ccc(O)cc1)NC(=O)[C@H](CC(C)C)NC(=O)[C@H](CC(C)C)NC(=O)OC(C)(C)C`
7.64

Report Activity for `CCOC(=O)/C=C/[C@H](Cc1ccc(O)cc1)NC(=O)[C@H](Cc1ccccc1)NC(=O)OC(C)(C)C` please.
12.68

# lookup: Activity of `CCOC(=O)/C=C/[C@H](C[C@@H]1CCNC1=O)NC(=O)[C@H](CC(C)C)NC(=O)[C@H](CC(C)C)NC(=O)OC(C)(C)C`
-2.4

Any idea what Activity was measured for `CCOC(=O)/C=C/[C@H](C[C@@H]1CCNC1=O)NC(=O)[C@H](CC(C)C)NC(=O)[C@@H](NC(=O)[C@@H](NC(=O)OC(C)(C)C)[C@@H](C)CC)[C@@H](C)O` ?
-0.31

Returns the measured Activity for the input molecule. Input: `CC(C)(C)OC(=O)N[C@@H](Cc1ccccc1)C(=O)N[C@@H](CO)C(=O)N[C@H](/C=C/C(=O)O)C[C@@H]1CCNC1=O`
1.66

Look up Activity: `CC(C)(C)OC(=O)N[C@@H](Cc1ccccc1)C(=O)N[C@@H](CO)C(=O)N[C@H](/C=C/C(=O)O)Cc1ccc(O)cc1`
3.39

Sample `CCOC(=O)/C=C/[C@H](Cc1ccccc1)NC(=O)[C@H](CC(C)C)NC(=O)OC(C)(C)C` — what was its Activity?
1.55

Recorded Activity for `CCOC(=O)/C=C/[C@H](C[C@@H]1CCNC1=O)NC(=O)[C@@H](NC(=O)[C@@H](NC(=O)OC(C)(C)C)[C@@H](C)CC)[C@@H](C)O` , please?
-16.67

Value lookup for Activity; key = `CCOC(=O)/C=C/[C@H](Cc1ccc(O)cc1)NC(=O)[C@H](CC(C)C)NC(=O)[C@H](CC(C)C)NC(=O)OC(C)(C)C`
-6.95

# get_value(readout='Activity', item= `CCOC(=O)/C=C/[C@H](Cc1ccccc1)NC(=O)[C@@H](NC(=O)OC(C)(C)C)[C@@H](C)CC` )
-7.74

Could you tell me which Activity is on file for `CCOC(=O)/C=C/[C@H](Cc1ccccc1)NC(=O)[C@H](CO)NC(=O)[C@@H](NC(=O)OC(C)(C)C)C(C)C` ?
-11.09

# Activity lookup, item `CCOC(=O)/C=C/[C@H](Cc1ccccc1)NC(=O)[C@H](CO)NC(=O)OC(C)(C)C`
-3.14

Quick one: Activity for `CCOC(=O)/C=C/[C@H](C[C@@H]1CCNC1=O)NC(=O)[C@H](CC(C)C)NC(=O)[C@H](CO)NC(=O)[C@H](Cc1ccccc1)NC(=O)OC(C)(C)C` ?
-0.39

Name the reported Activity value associated with the molecule `CCOC(=O)/C=C/[C@H](Cc1ccc(O)cc1)NC(=O)[C@H](CO)NC(=O)[C@@H](NC(=O)OC(C)(C)C)C(C)C`
3.39

Reported Activity for `CCOC(=O)/C=C/[C@H](C[C@@H]1CCNC1=O)NC(=O)[C@H](CC(C)C)NC(=O)[C@H](CC(C)C)NC(=O)[C@H](CC(C)C)NC(=O)OC(C)(C)C` : what is it?
12.02

Fill in the blank: the reported Activity of `CCOC(=O)/C=C/[C@H](Cc1ccccc1)NC(=O)[C@H](Cc1ccccc1)NC(=O)OC(C)(C)C` is ____.
-3.61

Recorded Activity for `CCOC(=O)/C=C/[C@H](Cc1ccc(O)cc1)NC(=O)[C@H](CC(C)C)NC(=O)OC(C)(C)C` , please?
-10.27

Given the entry `CCOC(=O)/C=C/[C@H](Cc1ccccc1)NC(=O)[C@H](Cc1ccccc1)NC(=O)[C@H](CC(C)C)NC(=O)OC(C)(C)C` , report its measured Activity.
-4.56

May I ask what Activity has been recorded for `CCOC(=O)/C=C/[C@H](C[C@@H]1CCNC1=O)NC(=O)[C@H](CO)NC(=O)[C@@H](NC(=O)OC(C)(C)C)C(C)C` ?
-4.98

Entry `CCOC(=O)/C=C/[C@H](Cc1ccc(O)cc1)NC(=O)[C@@H](NC(=O)[C@@H](NC(=O)OC(C)(C)C)[C@@H](C)CC)[C@@H](C)O` has what Activity?
3.1

Which Activity is reported for this molecule? `CCOC(=O)/C=C/[C@H](Cc1ccc(O)cc1)NC(=O)[C@@H](NC(=O)OC(C)(C)C)[C@@H](C)CC`
3.32

---

Tested on: Bel-7402
experimental-protocol: Antiproliferative activity against human Bel7402 cells at 10 umole
Type: functional
measurement-name: Activity (%)
# number only, unit % dropped from output

Given the compound `CC(C)(C)OC(=O)N[C@@H](CO)C(=O)N[C@H](/C=C/C(=O)O)Cc1ccc(O)cc1` , what is its reported Activity?
-5.91

What measured Activity goes with `CCOC(=O)/C=C/[C@H](Cc1ccc(O)cc1)NC(=O)[C@@H](NC(=O)OC(C)(C)C)C(C)C` ?
4.6

Name the reported Activity value associated with the compound `CCOC(=O)/C=C/[C@H](Cc1ccccc1)NC(=O)[C@@H](NC(=O)OC(C)(C)C)C(C)C`
-3.57

---

Test system: HL-60
experimental-protocol: Antiproliferative activity against human HL60 cells at 10 umole
Format: functional
measurement-name: Activity (%)
Answer in %, number only, no unit symbol.

Which measured Activity value corresponds to `CCOC(=O)/C=C/[C@H](Cc1ccccc1)NC(=O)[C@H](CO)NC(=O)[C@H](Cc1ccccc1)NC(=O)OC(C)(C)C` ?
21.08

Which measured Activity value corresponds to `CCOC(=O)/C=C/[C@H](C[C@@H]1CCNC1=O)NC(=O)[C@H](CC(C)C)NC(=O)[C@H](CO)NC(=O)[C@H](Cc1ccccc1)NC(=O)OC(C)(C)C` ?
4.94

Sample `CCOC(=O)/C=C/[C@H](C[C@@H]1CCNC1=O)NC(=O)[C@H](CC(C)C)NC(=O)[C@@H](NC(=O)[C@@H](NC(=O)OC(C)(C)C)[C@@H](C)CC)[C@@H](C)O` — what was its Activity?
-2.32

This collection of values is drawn from ChEMBL document CHEMBL1142376.
